- EXPERIMENT: physchem
- CONDITION_INFO: pH 7.4
Recorded logP values for a group of molecules are listed next.
OBSERVABLE: logP

[[record]]
molecule = "CC(=O)OCC(=O)[C@@]1(O)CC[C@H]2[C@@H]3CCC4=CC(=O)CC[C@]4(C)[C@H]3[C@@H](O)C[C@@]21C [hydrocortisone acetate]"
recorded_measurement = 2.18

[[record]]
molecule = "Clc1ccccc1C(c1ccccc1)(c1ccccc1)n1ccnc1"
recorded_measurement = 4.1


###

- EXPERIMENT: Octanol-water distribution coefficient (log P), lipophily
- CONDITION_INFO: octanol/water, pH 7.4
OBSERVABLE: logP

[[record]]
chemical_smiles = "CN(C/C=C/C#CC(C)(C)C)Cc1cccc2ccccc12"
observable = "logP"
recorded_measurement = 3.3

[[record]]
chemical_smiles = "CC(=O)Oc1ccccc1C(=O)O"
observable = "logP"
recorded_measurement = -1.15

[[record]]
chemical_smiles = "CCCCOC(=O)CCC(=O)CN"
observable = "logP"
recorded_measurement = 1.42

[[record]]
chemical_smiles = "NCC(=O)CCC(=O)O"
observable = "logP"
recorded_measurement = -1.52


Where do the numbers come from? From patent US20080227757A1.
